- System: Aspartate Aminotransferase (AST)
- Test description: Liver enzyme elevation in serum, AST
- Type: in vivo
- Study conditions: cirRNA (SEQ ID NO: 1) LNPs; BALB/C mice; intravenous 0.5 MPK; 24 hours
Measure name: AST in Sera (IU/L) 24 hours After 0.5 MPK Injection
Use IU/L as the unit, but write only the number.

Some compounds with recorded AST in Sera (IU/L) 24 hours After 0.5 MPK Injection:
# input Quickly give me recorded AST in Sera (IU/L) 24 hours After 0.5 MPK Injection for CCCCCCCCC(CCCCCCCC)OC(=O)CCCCCCCN(CCCCCCCCOC(=O)C(CCCCCC)CCCCCCCC)CCCOC(=O)NCCN1CCCC1 (stereo not drawn) [Lipid 350]
# output 362.67

# input Quickly give me recorded AST in Sera (IU/L) 24 hours After 0.5 MPK Injection for CCCCCCCCCC(=O)OCCCCCCCN(CCCCCCCCOC(=O)C(CCCCCC)CCCCCCCC)CCOC(=O)NCCN1CCCCC1 (stereo not drawn) [Lipid 196]
# output 180.67

# input Quickly give me recorded AST in Sera (IU/L) 24 hours After 0.5 MPK Injection for CCCCCCCCCCC(CCCCCCCC)COC(=O)CCCCCN(CCCCCC(=O)OCC(CCCCCCCC)CCCCCCCCCC)CCOC(=O)NCCN(C)C (stereo not drawn) [Lipid 170]
# output 120.57

Further cases:
# input Quickly give me recorded AST in Sera (IU/L) 24 hours After 0.5 MPK Injection for CCCCCCCCCC(=O)OCCCCCCCN(CCCCCCCCOC(=O)C(CCCCCC)CCCCCCCC)CCOC(=O)NCCN(C)C (stereo not drawn) [Lipid 197]
# output 237.67

# input Quickly give me recorded AST in Sera (IU/L) 24 hours After 0.5 MPK Injection for CCCCC/C=C\C/C=C\CCCCCCCCN(CCCCCCCC(=O)OC(CCCCCCCC)CCCCCCCC)CCOC(=O)NCc1ncc[nH]1 [Lipid 132]
# output 72.53

# input Quickly give me recorded AST in Sera (IU/L) 24 hours After 0.5 MPK Injection for CCCCCCCCCCC(CCCCCCCC)COC(=O)CCCCCN(CCCCCC(=O)OCC(CCCCCCCC)CCCCCCCCCC)CCOC(=O)NCCN1CCCCC1 (stereo not drawn) [Lipid 169]
# output 87.00
